experiment: yeast display, Sf9 membrane polyspecificity reagent, FACS + sequencing; frameworks hold sequencing errors
outcome_measure: polyreactivity (PSR sort gate)

QVHLVESGGGLVQAGGSLRLSCAASGFTFRYYTMGWYRQAPGKERELVARITWSGGITYYADSVKGRFTISRDNAKNTVYLQMNSLKPEDTAVYYCNAERRWAAYDYWGQGTQVTVSS: high polyreactivity
QVQLVESGGGLLQAGGSLRLSCAASVSIFDSYAMGWYREAPGKERELVAVISESGGTTYNADSVKGRFTISRDNAKNTVYLQMNSLKPEDTAVYYCAAVWYFQFGVWGYYWGQGTQVTVSS: low polyreactivity
QVQLVESGGGLVQAGGSLRLSCAASGSILEPYAMGWYRQAPGKERELVAAISSSGGSTRYADSVKWRFTISRDNAKNTVYLQMNSLKPEDTAVYYCAARFRAKFNYWGQGTQVTVSS: high polyreactivity
QVQLVESGGGLVQAGGSLRISCAASGCTFSFNAMGWYRPAPGKERELVAAITTADSTYYADSVKGRFTISRDNAKNTGYFQMNSLKPEDTAVYYCAADAYWEYDYWGQGTQVTVSS: low polyreactivity
QVQLVESGGGLVQAGGSLRLSCAASGFILRYYAMGWYRQAPGKERELVAAITRGGSTYDADSVKGRFTISRDNAKNTVYLQMNSLKPEDTAVYYFDRRVGYKFSYDYWGQGTQVTVSS: high polyreactivity
QVQLVESGGGLVQAGGSLRLSCAASGTFYYYAMGWYRQAPGKERDLVAGITSGGSTYYADSVKGRFTISRDNAKNTVYLQMNSLKPEDTAVYYCNTKVISRTSERRGNGFTRYDYWGQGTQVTVSS: low polyreactivity
QVQLVESGGGLVQAGGSLRLSCAASGRTFVNYALGWYRQAPWKERELVAGISSDGSTYYADSEKGRFTISRDNAKNTVYLQMNSLKPEDTAVYYCATEIRITGLYRYDYWGQGTQVTVSS: low polyreactivity
QVQLVESGGGLVQAGGSLRLSCAASGSTFGFYAMGWYRQAPGKERELVAAISGRGGSTYYADSVKGRFTISRDNAKNTVYLQMNSLKPEDTAVYYCAAKYYGEMYYWGQGTQVTVSS: low polyreactivity
QVQLVESGGGLVQAGGSLRLSCAASGRISWVYAKGWYRQPPGKERELVAAITFSGGSTYYADSVKGRFTISSDNEKNTVYLQMNSLKPEDTAVYYCAADVLAIYSHRYYRYDSWGQGTQVTVSS: high polyreactivity
QVQLVESGGRIVQAGGSLRLICAASGRIFVRNAMGWYRQAPGKERELVAAITTSGGRTYYADSVKGRFTISRDNAKNTVYLQMNSLKPEDTAVYYCAADTRYRNYPYYYWGQGTQVTVSS: high polyreactivity

Query: polyreactivity (PSR sort gate); subject: `QVQLVESGAGLVQAGGSLRLSCAASGRTFHRYAMGWYRQAPGKERELVATINRNGGSTYYADSVKGRFTISRDNAKNTVYLQMNSLKPDDTAVYYCNKRVYTGYKYSESFDRYYYWGQGTQVTVSS`
high polyreactivity

---

test: yeast display, Sf9 membrane polyspecificity reagent, FACS + sequencing; frameworks hold sequencing errors
outcome_measure: polyreactivity (PSR sort gate)

Examples from the recorded data:
QVQLVESGGGLVQAGGSLRLSCAASGFTFWLYTMGWYRQAPGKERELVAAISWSGGSTYYADSVKGRFTISRDTAKNTVYLQMNSLKPEDTAVYYCNALYVGYYDSMGYWGQGTQVTVSS: high polyreactivity
QVQLVESGGGLVQAGGSLRLSCAASGRTFPGYAMGWYRQAPGKERELVATITLSDGSTYYADSVKGRFTISRDNAKTTVYLQMNSLKPEDTAVYYCNARRSYFLRYGVNYWGQGTQVTVSS: low polyreactivity
QVQLVESGGGLVQAGGSLRLSCAASGSTFRYYAMGWYRQAPGKERELVAAISSSGGRTYYADSVKGRFTISRDNAKNTVYLQMNSLKPEDTAVYYCAALYLRYHYGTDFDYWGQGTKVTVSS: high polyreactivity
QVQLVESGGGLVQAGGSLRLSCAASGRIFPYYAMGWYRQAPGKVRELVASIRYSAGNTYYADSVKGRFTISRDNAKNTVYLQMNSLKPEDTAVYYCWYTQNTLGNYWGQGTQVTVSS: low polyreactivity

# ---- query sequence ----
Query: polyreactivity (PSR sort gate); subject: `QVQLVESGGGLVQAGGSLRLSCAASGLTCASYVMGWYRQAPGKERELVAAISSSGDSTYYADSVKGRFTISRDNAKNTFYLEMNSLKPEDTAVYYCASNDYVWGQGTQVTVSS`
low polyreactivity
